Hey, just so you know, these numbers are from ChEMBL document CHEMBL3885861.

So I've got a bunch of compounds here, and I need their Ht values.
Organism: Rattus norvegicus
assay: Open TG-GATES - Regimen: Daily Repeat
Assay type: toxicity, organism-based, Sprague-Dawley
Parameters: regimen Daily Repeat, gender Male, age 6 weeks
condition_description: in vivo, po, 0 mg/kg, […], tissue Blood, route gavage, dose level Control, time 7 day
Value and unit, in that order.

NC1=NC(=O)C(c2ccccc2)O1 (stereo not given) | 40%
CNC(=C[N+](=O)[O-])NCCSCc1ccc(CN(C)C)o1 | 39.4%
CCOc1ccc(NC(C)=O)cc1 | 41.1%
CN/C(=N/CCSCc1nc[nH]c1C)NC#N | 41.6%

Consider now this further compound.
Prompt: Recorded Ht for `CCCc1cc(=O)[nH]c(=S)[nH]1` , please?
Response: 41%

----------
Species: Rattus norvegicus
assay: Open TG-GATES - Regimen: Single
Assay type: toxicity, organism-based, Sprague-Dawley
Parameters: regimen Single, gender Male, age 6 weeks
condition_description: in vivo, po, 100 mg/kg, 3 h, tissue Plasma, route gavage, dose level Low
parameter: TG
Value and unit, in that order.

Sample answers from the record:
Cc1nnc2n1-c1ccc(Cl)cc1C(c1ccccc1Cl)=NC2 [TRIAZOLAM] | 40.6 mg/dL
CN/C(=N/CCSCc1nc[nH]c1C)NC#N [CIMETIDINE] | 47.4 mg/dL
CNC(=C[N+](=O)[O-])NCCSCc1ccc(CN(C)C)o1 [RANITIDINE] | 57.4 mg/dL
O=C(OC[C@H]1O[C@@H](OC(=O)c2cc(O)c(O)c(OC(=O)c3cc(O)c(O)c(O)c3)c2)[C@H](OC(=O)c2cc(O)c(O)c(OC(=O)c3cc(O)c(O)c(O)c3)c2)[C@@H](OC(=O)c2cc(O)c(O)c(OC(=O)c3cc(O)c(O)c(O)c3)c2)[C@@H]1OC(=O)c1cc(O)c(O)c(OC(=O)c2cc(O)c(O)c(O)c2)c1)c1cc(O)c(O)c(OC(=O)c2cc(O)c(O)c(O)c2)c1 [TANNIC ACID] | 47.6 mg/dL

Prompt: Recorded TG for COC(=O)C1=C(C)NC(C)=C(C(=O)OC)C1c1ccccc1[N+](=O)[O-] [NIFEDIPINE] , please?
Response: 31.6 mg/dL

----------
Organism: Rattus norvegicus
assay: Open TG-GATES - Regimen: Single
Assay type: toxicity, organism-based, Sprague-Dawley
Parameters: regimen Single, gender Male, age 6 weeks
condition_description: in vivo, po, 0 mg/kg, 9 h, tissue Blood, route gavage, dose level Control
parameter: MCHC (%)
One number for each entry, in %.

Sample answers from the record:
O=C(OC[C@H]1O[C@@H](OC(=O)c2cc(O)c(O)c(OC(=O)c3cc(O)c(O)c(O)c3)c2)[C@H](OC(=O)c2cc(O)c(O)c(OC(=O)c3cc(O)c(O)c(O)c3)c2)[C@@H](OC(=O)c2cc(O)c(O)c(OC(=O)c3cc(O)c(O)c(O)c3)c2)[C@@H]1OC(=O)c1cc(O)c(O)c(OC(=O)c2cc(O)c(O)c(O)c2)c1)c1cc(O)c(O)c(OC(=O)c2cc(O)c(O)c(O)c2)c1 | 33.6
CCOc1ccc(NC(C)=O)cc1 | 33.3
CS(=O)(=O)O.Cc1ccc(NC(=O)c2ccc(CN3CCN(C)CC3)cc2)cc1Nc1nccc(-c2cccnc2)n1 [IMATINIB MESYLATE] | 33.4
Brc1ccccc1 | 33.4
CC(C)NNC(=O)c1ccncc1 | 34.3
NC1=NC(=O)C(c2ccccc2)O1 (centres undefined) | 34.2
CN(C)CCC(c1ccc(Cl)cc1)c1ccccn1 (centres undefined) | 32.2
CCCc1cc(=O)[nH]c(=S)[nH]1 | 33.1

Can you give me MCHC for all of these, one by one?
1. COC(=O)C1=C(C)NC(C)=C(C(=O)OC)C1c1ccccc1[N+](=O)[O-]
2. CN1C(=O)CCS(=O)(=O)C1c1ccc(Cl)cc1 (centres undefined)
3. Cc1nnc2n1-c1ccc(Cl)cc1C(c1ccccc1Cl)=NC2
4. CNC(=C[N+](=O)[O-])NCCSCc1ccc(CN(C)C)o1
5. Nc1c2c(nc3ccccc13)CCCC2
6. CN/C(=N/CCSCc1nc[nH]c1C)NC#N

Response:
32.4
33.5
32.7
34.8
34.2
34.6

----------
Species on record: Rattus norvegicus
assay: Open TG-GATES - Regimen: Single
Format: toxicity, organism-based, Sprague-Dawley
Set-up: regimen Single, gender Male, age 6 weeks
condition_description: in vivo, po, 100 mg/kg, 24 h, tissue Liver, route gavage, dose level Low
Rule: t for LIVER not less than 10 g, f for anything less.

COC(=O)C1=C(C)NC(C)=C(C(=O)OC)C1c1ccccc1[N+](=O)[O-] | f
CN/C(=N/CCSCc1nc[nH]c1C)NC#N | t
CNC(=C[N+](=O)[O-])NCCSCc1ccc(CN(C)C)o1 | t
O=C(OC[C@H]1O[C@@H](OC(=O)c2cc(O)c(O)c(OC(=O)c3cc(O)c(O)c(O)c3)c2)[C@H](OC(=O)c2cc(O)c(O)c(OC(=O)c3cc(O)c(O)c(O)c3)c2)[C@@H](OC(=O)c2cc(O)c(O)c(OC(=O)c3cc(O)c(O)c(O)c3)c2)[C@@H]1OC(=O)c1cc(O)c(O)c(OC(=O)c2cc(O)c(O)c(O)c2)c1)c1cc(O)c(O)c(OC(=O)c2cc(O)c(O)c(O)c2)c1 | f

Okay, next one:
Prompt: Check this molecule for LIVER at or above 10 g: `Cc1nnc2n1-c1ccc(Cl)cc1C(c1ccccc1Cl)=NC2`
Response: f

----------
So I've got a bunch of molecules here, and I need their LDH values.
Organism: Rattus norvegicus
assay: Open TG-GATES - Regimen: Single
Format: toxicity, organism-based, Sprague-Dawley
Design: regimen Single, gender Male, age 6 weeks
condition_description: in vivo, po, 0 mg/kg, 6 h, tissue Plasma, route gavage, dose level Control
Numbers only, in IU/L.

NC1=NC(=O)C(c2ccccc2)O1 (stereo not drawn) | 57.6
CCOc1ccc(NC(C)=O)cc1 | 73.8
Brc1ccccc1 | 69.6
CN(C)CCC(c1ccc(Cl)cc1)c1ccccn1 (stereo not drawn) | 140.2
CC(C)NNC(=O)c1ccncc1 | 179.8

Can you give me LDH for all of these, one by one?
1. Nc1c2c(nc3ccccc13)CCCC2
2. CCCc1cc(=O)[nH]c(=S)[nH]1
3. CNC(=C[N+](=O)[O-])NCCSCc1ccc(CN(C)C)o1
4. COC(=O)C1=C(C)NC(C)=C(C(=O)OC)C1c1ccccc1[N+](=O)[O-]
5. Cc1nnc2n1-c1ccc(Cl)cc1C(c1ccccc1Cl)=NC2

Response:
252.4
82.2
111
70.4
104.2

----------
Species: Rattus norvegicus
assay: Open TG-GATES - Regimen: Daily Repeat
Type: toxicity, organism-based, Sprague-Dawley
Set-up: regimen Daily Repeat, gender Male, age 6 weeks
condition_description: in vivo, po, 300 mg/kg, […], tissue Blood, route gavage, dose level Middle, time 14 day
So I've got a bunch of molecules here, and I need their WBC values.
Value and unit, in that order.

Can you give me WBC for all of these, one by one?
1. O=C(OC[C@H]1O[C@@H](OC(=O)c2cc(O)c(O)c(OC(=O)c3cc(O)c(O)c(O)c3)c2)[C@H](OC(=O)c2cc(O)c(O)c(OC(=O)c3cc(O)c(O)c(O)c3)c2)[C@@H](OC(=O)c2cc(O)c(O)c(OC(=O)c3cc(O)c(O)c(O)c3)c2)[C@@H]1OC(=O)c1cc(O)c(O)c(OC(=O)c2cc(O)c(O)c(O)c2)c1)c1cc(O)c(O)c(OC(=O)c2cc(O)c(O)c(O)c2)c1 [TANNIC ACID]
2. CN/C(=N/CCSCc1nc[nH]c1C)NC#N [CIMETIDINE]

Response:
["101.9 x10_2/uL", "117.5 x10_2/uL"]

----------
Species: Rattus norvegicus
assay: Open TG-GATES - Regimen: Single
Assay type: toxicity, organism-based, Sprague-Dawley
Design: regimen Single, gender Male, age 6 weeks
condition_description: in vivo, po, 300 mg/kg, 3 h, route gavage, dose level Middle
parameter: TERMINAL_BW (g)
Give bare numbers, in g.

CNC(=C[N+](=O)[O-])NCCSCc1ccc(CN(C)C)o1 | 216.6
CN/C(=N/CCSCc1nc[nH]c1C)NC#N | 213.9

Can you give me TERMINAL_BW for all of these, one by one?
1. COC(=O)C1=C(C)NC(C)=C(C(=O)OC)C1c1ccccc1[N+](=O)[O-]
2. Cc1nnc2n1-c1ccc(Cl)cc1C(c1ccccc1Cl)=NC2
3. O=C(OC[C@H]1O[C@@H](OC(=O)c2cc(O)c(O)c(OC(=O)c3cc(O)c(O)c(O)c3)c2)[C@H](OC(=O)c2cc(O)c(O)c(OC(=O)c3cc(O)c(O)c(O)c3)c2)[C@@H](OC(=O)c2cc(O)c(O)c(OC(=O)c3cc(O)c(O)c(O)c3)c2)[C@@H]1OC(=O)c1cc(O)c(O)c(OC(=O)c2cc(O)c(O)c(O)c2)c1)c1cc(O)c(O)c(OC(=O)c2cc(O)c(O)c(O)c2)c1

Response:
203.9
190.9
187.9
